- System: Fusobacterium nucleatum subsp. animalis
- test-protocol: growth AUC relative to DMSO control (median of replicates) (fraction); higher = more growth (less inhibition), active = hit call of the paper;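 active = AUC reduced over 20% with Padj below 0.05 in at least 2 of 3 replicates; inactive = otherwise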
- experimental-conditions: 20 µM; 24 h
Tick one outcome: Yes for active, No for inactive

Use the examples below as a reference point.
CCCCOC(=O)COc1ccc(Cl)cc1Cl | No
Oc1c(Cl)cc(Cl)c(Cl)c1Cc1c(O)c(Cl)cc(Cl)c1Cl | Yes

Please find the next molecule below.
// outcome(item) with item = O=C1NCCN1
No

* * *

- Tested on: Bacteroides stercoris
- test-protocol: growth AUC relative to DMSO control (median of replicates) (fraction); higher = more growth (less inhibition), active = hit call of the paper
- experimental-conditions: 20 µM; 24 h
Values of growth AUC greater than or equal to 1 map to true; values below map to false.

API: above_or_equal(metric=growth AUC, cutoff=1) for item CCc1cccc(C)c1NC(=O)CS(=O)(=O)[O-].[Na+]
false

Record: CC(C)c1nn(C(=O)NC(C)(C)C)c(=O)n1N
true

Record: Cc1nn(C)c(Oc2ccccc2)c1/C=N/OCc1ccc(C(=O)OC(C)(C)C)cc1
false
